biological target: cAMP-dependent protein kinase catalytic subunit alpha (Bos taurus); assay: Inhibition of cAMP-dependent Protein kinase A (PKA)
measure: IC50

// solved cases for IC50 follow
>>> endpoint_result("O=C(NC1CNCCC[C@H]1OC(=O)c1cc(O)c(C(=O)c2ccc3ccccc3c2O)c(O)c1)c1ccc(O)cc1 (stereo partly drawn)")
"> 150 µM"
>>> endpoint_result("O=C(NC1CNCC1OC(=O)c1cc(O)c(C(=O)c2c(O)ccc3ccccc23)c(O)c1)c1ccc(O)cc1 (stereo not drawn)")
"0.29 µM"
>>> endpoint_result("O=C(NC1CCCC1OC(=O)c1cc(O)c(C(=O)c2c(O)cccc2-c2nn[nH]n2)c(O)c1)c1ccc(O)cc1 (stereo not drawn)")
"0.21 µM"
>>> endpoint_result("O=C(NC1CNCCC[C@H]1OC(=O)c1cc(O)c(C(=O)C2CCCC[C@H]2C(=O)O)c(O)c1)c1ccc(O)cc1 (stereo partly drawn)")
"6.7 µM"
>>> endpoint_result("O=C(NC1CNCCC[C@H]1OC(=O)c1cc(O)c2c(=O)c3c(C(=O)O)cccc3oc2c1)c1ccc(O)cc1 (stereo partly drawn)")
"> 15 µM"
>>> endpoint_result("COc1cc(C(=O)O[C@@H]2CCCNCC2NC(=O)c2ccc(O)cc2)cc(OC)c1C(=O)c1c(O)cccc1O (stereo partly drawn)")
"4.3 µM"
>>> endpoint_result("NCCOc1cccc(O)c1C(=O)c1c(O)cc(C(=O)OC2CCCC2NC(=O)c2ccc(O)cc2)cc1O (stereo not drawn)")
"3.9 µM"

Now let's try a different one.
IC50 of O=C(NC1CNCCC[C@H]1OC(=O)c1cc(O)c(C(=O)c2ccccc2O)c(O)c1)c1ccc(O)cc1 (stereo partly drawn) on cAMP-dependent protein kinase catalytic subunit alpha (Bos taurus)?
0.44 µM
